System: rodent lifetime carcinogenesis bioassay, tumor incidence TD50
PROCEDURE_TEXT: carcinogenic potency in animals, long-term in vivo studies, CPDB compilation (AID 1745844)
CONDITION_SET: rat; strain Fischer 344; males; by gavage; site: liver; lesion: hepatocellular adenoma + hepatocellular carcinoma + neoplastic nodule; dosed 103 weeks; study length 104 weeks
MEASURE_NAME: TD50 (mg/kg/day)
Kindly answer with a numeric value in mg/kg/day, unit omitted.

Examples with answers:
{"MOLECULE": "CC(I)C1OCC(CO)O1 (stereo not given)", "MEASURED_NUMBER": 571}
{"MOLECULE": "[Cl][Hg][Cl]", "MEASURED_NUMBER": 10.3}
{"MOLECULE": "Nc1ccc([N+](=O)[O-])cc1O", "MEASURED_NUMBER": 1560}
{"MOLECULE": "CC(O)c1ccccc1 (stereo not given)", "MEASURED_NUMBER": 4800}
{"MOLECULE": "COC(N)=O", "MEASURED_NUMBER": 2030}

Exercise: Looking for the measured TD50 of `c1ccoc1` , can you help?
Key: 2.31

Exercise: Looking for the measured TD50 of `COc1c(Cl)c(Cl)c(Cl)c(Cl)c1Cl` , can you help?
Key: 6460

----------
System: rodent lifetime carcinogenesis bioassay, tumor incidence TD50
PROCEDURE_TEXT: carcinogenic potency in animals, long-term in vivo studies, CPDB compilation (AID 1745844)
CONDITION_SET: mouse; strain B6C3F1; females; inhaled; site: lung; lesion: alveolar/bronchiolar adenoma + alveolar/bronchiolar carcinoma; dosed 61 weeks; study length 61 weeks
MEASURE_NAME: TD50 (mg/kg/day)
Kindly answer with a numeric value in mg/kg/day, unit omitted.

Exercise: Looking for the measured TD50 of `C=CC=C` , can you help?
Key: 203

----------
Tested on: rodent lifetime carcinogenesis bioassay, tumor incidence TD50
PROCEDURE_TEXT: carcinogenic potency in animals, long-term in vivo studies, CPDB compilation (AID 1745844)
CONDITION_SET: rat; strain Fischer 344; males; in feed; site: liver; lesion: carcinoma; dosed 55 weeks; study length 59 weeks
MEASURE_NAME: TD50

Exercise: Looking for the measured TD50 of `C/C=C(/C)C(=O)O[C@H]1CCN2CC=C(COC(=O)[C@@](O)([C@H](C)OC)C(C)(C)O)[C@H]12` , can you help?
Key: 0.954 mg/kg/day

----------
Tested on: rodent lifetime carcinogenesis bioassay, tumor incidence TD50
PROCEDURE_TEXT: carcinogenic potency in animals, long-term in vivo studies, CPDB compilation (AID 1745844)
CONDITION_SET: rat; strain Donryu; females; in drinking water; site: several sites; sites named in the paper; lesion: papilloma; dosed 52 weeks; study length 60 weeks
MEASURE_NAME: TD50

Exercise: Looking for the measured TD50 of `CCCCCN(N=O)C(=O)OCC` , can you help?
Key: 1.7 mg/kg/day

----------
Test system: rodent lifetime carcinogenesis bioassay, tumor incidence TD50
PROCEDURE_TEXT: carcinogenic potency in animals, long-term in vivo studies, CPDB compilation (AID 1745844)
CONDITION_SET: rat; strain Fischer 344; males; in feed; site: any site (literature study); lesion: several types; types named in the paper; dosed 103 weeks; study length 104 weeks
Active and inactive are the calls of the source. How the calls were made is not given here.
MEASURE_NAME: carcinogen call

Examples with answers:
{"MOLECULE": "c1ccc(Nc2ccc3ccccc3c2)cc1", "carcinogen call": "negative (inactive)"}
{"MOLECULE": "C[C@](N)(Cc1ccc(O)c(O)c1)C(=O)O", "carcinogen call": "negative (inactive)"}
{"MOLECULE": "OC[C@@H](O)[C@@H](O)[C@H](O)[C@H](O)CO", "carcinogen call": "negative (inactive)"}
{"MOLECULE": "Nc1ccccc1-c1ccccc1", "carcinogen call": "negative (inactive)"}
{"MOLECULE": "CCOC(=O)CC(SP(=O)(OC)OC)C(=O)OCC (stereo not given)", "carcinogen call": "negative (inactive)"}
{"MOLECULE": "Oc1ccc(Cl)cc1Cl", "carcinogen call": "negative (inactive)"}
{"MOLECULE": "Cc1ccc(S(=O)(=O)NC(=O)NN2CCCCCC2)cc1", "carcinogen call": "negative (inactive)"}
{"MOLECULE": "CCCCC(CC)COC(=O)CCCCC(=O)OCC(CC)CCCC (stereo not given)", "carcinogen call": "negative (inactive)"}

Exercise: Hi! What's the reported carcinogen call for `CNC[C@H](O)c1cccc(O)c1` on rodent lifetime carcinogenesis bioassay, tumor incidence TD50?
Key: negative (inactive)

Exercise: Hi! What's the reported carcinogen call for `Cc1ccc(/C(=C\CN2CCCC2)c2ccccn2)cc1` on rodent lifetime carcinogenesis bioassay, tumor incidence TD50?
Key: negative (inactive)
